- STUDY_SYSTEM: Protein kinase C gamma type (Homo sapiens);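 further: values are mean percent inhibition of PKC gamma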
- ASSAY_CONTEXT: at 0.1 µM
READOUT: inhibition
Could you kindly put the unit after your number?

// below: answered compounds
O=C(Nc1n[nH]c2nnc(-c3cccnc3)cc12)C1CC1 | -0.5%
CCN1CCC(C(=O)Nc2n[nH]c3nnc(-c4cccc(F)c4F)cc23)CC1 | -1.51%

# map each compound to its inhibition
1. COc1c(C(N)=O)cc(-c2ccc(Cl)cc2)cc1-c1ccc(S(N)(=O)=O)cc1
2. CCn1c(-c2nonc2N)nc2cncc(C(=O)NCCNC)c21
3. CC1=C(C(=O)Nc2ccc3[nH]ncc3c2)C(c2ccc(F)cc2)N=C(c2ccc(C(F)(F)F)nc2)N1 (stereo not given)
4. O=C(O[C@H]1CN[C@H](C#Cc2cc3ncnc(Nc4ccc5c(ccn5Cc5cc(F)ccc5F)c4)c3s2)C1)N1CCOCC1

Reply text:
1: 1.45%; 2: 6.21%; 3: 0.54%; 4: 1.38%

----------
- STUDY_SYSTEM: Serine/threonine-protein kinase D3 (Homo sapiens) (UniProt O94806);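 further: each value is the mean of inhibition readings, from a kinase profiling panel run on the GSK PKIS inhibitor collection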
- Sequence (O94806 whole entry): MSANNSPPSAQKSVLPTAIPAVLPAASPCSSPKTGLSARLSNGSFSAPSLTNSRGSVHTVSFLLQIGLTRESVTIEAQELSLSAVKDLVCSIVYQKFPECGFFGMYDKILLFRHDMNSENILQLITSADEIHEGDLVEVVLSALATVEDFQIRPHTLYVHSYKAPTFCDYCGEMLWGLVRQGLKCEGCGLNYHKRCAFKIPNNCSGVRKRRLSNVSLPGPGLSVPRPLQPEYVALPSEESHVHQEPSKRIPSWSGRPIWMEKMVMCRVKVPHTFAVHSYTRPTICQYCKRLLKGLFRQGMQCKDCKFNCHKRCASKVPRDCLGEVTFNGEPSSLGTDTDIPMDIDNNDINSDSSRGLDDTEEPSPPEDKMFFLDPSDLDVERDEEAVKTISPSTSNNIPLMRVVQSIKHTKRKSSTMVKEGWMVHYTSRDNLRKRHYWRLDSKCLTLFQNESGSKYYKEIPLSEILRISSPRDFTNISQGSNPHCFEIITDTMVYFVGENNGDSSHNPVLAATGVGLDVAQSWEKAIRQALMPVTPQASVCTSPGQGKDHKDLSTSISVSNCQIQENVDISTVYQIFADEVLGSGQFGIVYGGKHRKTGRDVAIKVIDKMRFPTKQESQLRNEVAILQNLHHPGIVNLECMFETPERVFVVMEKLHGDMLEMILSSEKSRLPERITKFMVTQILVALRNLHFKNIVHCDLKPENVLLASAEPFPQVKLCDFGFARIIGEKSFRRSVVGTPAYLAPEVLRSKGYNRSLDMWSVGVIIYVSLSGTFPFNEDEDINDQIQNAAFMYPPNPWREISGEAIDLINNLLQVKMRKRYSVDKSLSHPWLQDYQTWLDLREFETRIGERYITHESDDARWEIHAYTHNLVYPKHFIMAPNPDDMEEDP
- ASSAY_CONTEXT: at 0.1 µM
We use 5% as the dividing line for inhibition: on or above the line is met, below is not met.

For orientation, consider the following solved cases.
O=C(O[C@H]1CN[C@H](C#Cc2cc3ncnc(Nc4ccc(OCc5cccc(F)c5)c(Cl)c4)c3s2)C1)N1CCOCC1 | met
CN1CCC(n2cnc(-c3ccc(F)cc3)c2-c2ccnc(NCCO)n2)CC1 | met
CS(=O)(=O)Nc1ccc(-c2ccc3c(NC(=O)C4CC4)n[nH]c3c2)cc1 | not met
COC(=O)Nc1nc2cc(Oc3ccc(NC(=O)Nc4ccccc4)cc3)ccc2[nH]1 | not met
c1ccc(-c2n[nH]cc2-c2ccnc(-c3ccc(OCCn4ccnc4)cc3)c2)nc1 | met

Inquiry: Exam item: decide whether the reported inhibition for `COc1ccc(-c2nn3ncccc3c2-c2ccnc(Nc3ccc(F)c(F)c3)n2)cc1` is at least 5%.
Reply text: not met

Inquiry: Decide: inhibition of `COc1cc(N2CCN(C(C)C)CC2)ccc1Nc1nc(Nc2cccc(F)c2C(=O)O)c2cc[nH]c2n1` >= 5%?
Reply text: not met

Inquiry: # check: inhibition of `COc1ccc(Nc2ncc(-c3ccccc3)o2)cc1OC` is greater than or equal to 5%
Reply text: not met

Inquiry: Is inhibition at least 5%? Consider `CNC(=O)c1cncc(/C=C/c2ccccc2C)c1`
Reply text: not met

Inquiry: Determine whether measured inhibition meets or exceeds 5% for `CCS(=O)(=O)c1ccc(OC)c(Nc2ncc(-c3cccc(C(C)=O)c3)o2)c1`
Reply text: not met

Inquiry: Hi, just wondering whether `O=C1Nc2ccccc2/C1=C1\CCc2cc(O)ccc21` shows inhibition of 5% or higher.
Reply text: met

Inquiry: In plain terms: is recorded inhibition at least 5% for `CNC(=O)c1sc(-n2cnc3cc(OC)c(OC)cc32)cc1OCc1ccccc1C(F)(F)F` ?
Reply text: not met

Inquiry: Given the entry `FC(F)(F)CNc1nccc(-c2cnn3ncccc23)n1` , answer whether its inhibition meets or surpasses 5%.
Reply text: not met

Inquiry: // inclusive: inhibition at least 5%? input: `CCn1c(-c2nonc2N)nc2cncc(C(=O)NCCNC)c21`
Reply text: met

----------
- STUDY_SYSTEM: Serine/threonine-protein kinase DCLK2 (Homo sapiens);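 further: reported value is the mean percent inhibition of DCAMKL2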
- ASSAY_CONTEXT: at 0.1 µM
Please go through the items and note down their inhibition.
I'd appreciate it if you included the unit after the number.

Check out these entries, answers already filled in.
O=C(O[C@H]1CN[C@H](C#Cc2cc3ncnc(Nc4ccc5c(ccn5Cc5cc(F)ccc5F)c4)c3s2)C1)N1CCOCC1 | 1.07%
COC(=O)Nc1nc2ccc(Oc3ccc(NC(=O)Nc4cc(C(F)(F)F)ccc4F)cc3)cc2s1 | -1.5%

Report inhibition for each item below.
1. CCn1c(-c2nonc2N)nc2cncc(C(=O)NCCNC)c21
2. COc1ccc2ncn(-c3cc(O[C@H](C)c4ccccc4C(F)(F)F)c(C(N)=O)s3)c2c1
3. COc1ccc(-c2nn3ncccc3c2-c2ccnc(Nc3ccc(F)c(F)c3)n2)cc1
4. CS(=O)(=O)Nc1ccc(-c2ccc3c(NC(=O)C4CC4)n[nH]c3c2)cc1
5. N#Cc1ccc2c(-c3ccnc(NC4CC4)n3)c(-c3ccc(F)cc3)nn2c1

Reply text:
["1.52%", "-0.78%", "1.7%", "1.42%", "-0.01%"]

The following molecules each have a reported value; give each one's inhibition.
1. COc1cc(Nc2ncc(-c3ccccc3)o2)cc(OC)c1
2. OCCCNc1nccc(-c2c(-c3ccc(F)cc3)nn3cc(C(F)(F)F)ccc23)n1
3. CN1CCC(n2cnc(-c3ccc(F)cc3)c2-c2ccnc(NCCO)n2)CC1

Reply text:
1: 1.65%; 2: 0.89%; 3: 1.63%

Please supply inhibition for each of the following items, keeping them in order.
1. Fc1ccc(Nc2nccc(-c3c(-c4ccc(C(F)(F)F)cc4)nn4ncccc34)n2)cc1F
2. CC1(C)CC(n2cnc(-c3ccc(F)cc3)c2-c2ccnc(N)n2)CC(C)(C)N1
3. CN(C)CCNC(=O)Nc1ccc(N(C)c2ccnc(Nc3ccc(CS(C)(=O)=O)cc3)n2)cc1

Reply text:
1.36%
2.01%
2.39%

Batch: inhibition for all items listed.
1. NC(=O)c1ccc2c(-c3ccnc(NCCCO)n3)c(-c3ccc(F)cc3)nn2c1
2. Cn1c(-c2nonc2N)nc2cnccc21
3. CS(=O)(=O)CCNCc1ccc(-c2ccc3ncnc(Nc4ccc(OCc5cccc(C(F)(F)F)c5)cc4)c3c2)o1
4. CC1=C(C(=O)Nc2ccc3[nH]nc(C)c3c2)C(c2ccc(C(F)(F)F)cc2)CC(=O)N1 (centres undefined)
5. COc1cc2c(cc1Nc1nc(Nc3cccc(F)c3C(N)=O)c3cc[nH]c3n1)N(C(=O)CN1CCN(C(C)C)CC1)CC2

Reply text:
1: 1.81%; 2: 0%; 3: 0.29%; 4: 1.35%; 5: 4.68%

Inquiry: I would be grateful if you could share the reported inhibition for `COc1ccc(Nc2ncc(-c3ccccc3)o2)cc1OC` .
Reply text: 0.15%

----------
- STUDY_SYSTEM: Proto-oncogene tyrosine-protein kinase receptor Ret (Homo sapiens);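 further: each listed value is an averaged inhibition figure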
- ASSAY_CONTEXT: at 1 µM
Please respond with reported inhibition for every item in the list.

CC1(C)CC(n2cnc(-c3ccc(F)cc3)c2-c2ccnc(N)n2)CC(C)(C)N1 | -0.44%
Cc1c2ccc(N(C)c3ccnc(Nc4cccc(S(N)(=O)=O)c4)n3)cc2nn1C | 77.5%
CCS(=O)(=O)c1ccc(OC)c(Nc2ncc(-c3cccc(C(C)=O)c3)o2)c1 | 33.6%
Cc1nnc(-c2cccc(-c3ccc(C(=O)NCC4CC4)cc3)c2)o1 | 7.32%

Next:
Inquiry: Entry under review: `CNC(=O)c1sc(-n2cnc3cc(OC)c(OC)cc32)cc1OCc1ccccc1C(F)(F)F` . Reported inhibition?
Reply text: 9.67%

----------
- STUDY_SYSTEM: RAC-alpha serine/threonine-protein kinase (Homo sapiens) (UniProt P31749)
- Sequence (P31749 whole entry): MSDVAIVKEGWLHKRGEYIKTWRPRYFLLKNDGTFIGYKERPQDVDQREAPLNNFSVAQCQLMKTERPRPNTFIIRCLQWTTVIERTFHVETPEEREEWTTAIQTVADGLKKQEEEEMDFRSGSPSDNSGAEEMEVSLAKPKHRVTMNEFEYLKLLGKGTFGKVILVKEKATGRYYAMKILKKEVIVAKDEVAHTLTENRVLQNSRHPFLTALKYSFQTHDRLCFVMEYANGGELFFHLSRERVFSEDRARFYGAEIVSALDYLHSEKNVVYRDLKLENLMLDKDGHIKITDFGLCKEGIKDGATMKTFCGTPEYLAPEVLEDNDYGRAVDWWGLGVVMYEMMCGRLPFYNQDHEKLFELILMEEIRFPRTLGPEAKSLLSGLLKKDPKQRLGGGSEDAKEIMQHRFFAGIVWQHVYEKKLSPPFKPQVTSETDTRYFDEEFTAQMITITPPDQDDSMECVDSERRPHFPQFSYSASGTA
- ASSAY_CONTEXT: at 1 µM
- Description: GSK_PKIS: AKT1 mean inhibition at 1 uM [Nanosyn]
READOUT: inhibition

Check out these entries, answers already filled in.
CC1=C(C(=O)Nc2ccc3[nH]nc(C)c3c2)C(c2ccc(C(F)(F)F)cc2)CC(=O)N1 (stereo not given) | 1.18%
COc1ccccc1-c1cc(/C=C2\C(=O)Nc3ncc(Br)cc32)cc(Br)c1O | 0.15%
c1ccc(-c2n[nH]cc2-c2ccnc(-c3ccc(OCCn4ccnc4)cc3)c2)nc1 | 0.14%

Field: inhibition. Fill in for each record below.
1. CCN1CCC(C(=O)Nc2n[nH]c3nnc(-c4cccc(F)c4F)cc23)CC1
2. COc1ccc(-c2nn3ncccc3c2-c2ccnc(Nc3ccc(F)c(F)c3)n2)cc1

Reply text:
1. -1.03%
2. 2.13%

// each listed compound needs a value for inhibition
1. CNC(=O)c1ncccc1Nc1nc(Nc2cc3c(cc2OC)CCCN3C(=O)CN(C)C)nc2[nH]ccc12
2. CCS(=O)(=O)c1ccc(OC)c(Nc2ncc(-c3cccc(C(C)=O)c3)o2)c1

Reply text:
1: 1.38%; 2: 0.26%

I have 8 compounds here; please give me inhibition for each one.
1. FC(F)(F)CNc1nccc(-c2cnn3ncccc23)n1
2. Cc1cc(O)cc(C)c1/C=C/c1cncc(C(N)=O)c1
3. CCOc1ccc2c(-c3ccnc(Nc4cc(OC)cc(C(F)(F)F)c4)n3)cnn2n1
4. CS(=O)(=O)CCNCc1ccoc1-c1ccc2ncnc(Nc3ccc(OCc4ccccc4)cc3)c2c1
5. COC(=O)Nc1nc2cc(Oc3ccc(NC(=O)Nc4ccccc4)cc3)ccc2[nH]1
6. COc1cc(Nc2ncc(-c3ccccc3)o2)cc(OC)c1
7. COc1cc(N2CCN(C(C)C)CC2)ccc1Nc1nc(Nc2cccc3ncccc23)c2cc[nH]c2n1
8. COc1ccc(Nc2ncc(-c3ccccc3)o2)cc1OC

Reply text:
0.65%
1.41%
0.45%
0.18%
0.28%
1.33%
-0.94%
0%
